tgt: CaBbc1
test-name: SPOT peptide array binding signal intensity (averaged, normalized) (arbitrary units (background-subtracted, floor 0; scale differs between SH3 domains)); higher = stronger binding of the SH3 domain to the peptide
// SPOT peptide array binding signal intensity lookup, one value per entry
Lab note: jot down the number only; don't add units.

These recorded examples may help you get a feel for the data.
TPTSGPPLLPPRNTM: 153
FYNRTAFQLPGDARV: 3
SRQAIPPPVPNRPGG: 3020
GQYRRTIVIPRRFFT: 128

query: Can you share its SPOT peptide array binding signal intensity? I mean this binder: MARRRLPDRPPNGIG
result: 1100

query: Repeat for the following binder: RKNRAPPQRPRFNRE
result: 945

query: Try this binder too: PPIPNAPLSPAPAVP
result: 2

query: Cool, now IRMPSNPALPKKLLN
result: 126

query: Would you kindly repeat that for LTRRFPFLFPFDTRM ?
result: 3.25
